# system_tested: T1, S. pombe Pcf11 CID1-139 with an N-terminal His6-SUMO tag (S. pombe)
# T1 chain: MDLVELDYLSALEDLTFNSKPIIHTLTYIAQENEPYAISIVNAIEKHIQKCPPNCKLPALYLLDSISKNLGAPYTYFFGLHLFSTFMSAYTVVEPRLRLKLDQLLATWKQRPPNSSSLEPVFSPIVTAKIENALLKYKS
# assay_protocol: FP
No end group written: not given here. FAM = 5'-fluorescein amidite
quantity_name: Kd (µM)
Response body: numeric value in µM, unit text excluded.

// query # query: Kd of entry {FAM}-YSPTSPSYSPTSPS (also: phospho-Ser2 of heptad, which repeat not given here) [FAM-labeled two-repeat CTD peptide, Ser2P]
// result 48.1
